The reported numbers originate from patent EP4624486A1.

- tested_on: GLP-1 receptor (GLP-1R) (UniProt P43220 24-463, limits assumed)
- assay_procedure: cell-based or functional assay
Bridge positions count the residues as written; N and C are the ends. Square brackets hold non-standard residues; d marks the D form. Ends that are not written are not given here. stapled body chem0209 = not defined here; stapled body chem0214 = not defined here; αMeL = CC(C)C[C@](C)(N)C(=O)O; Aib = CC(C)(N)C(=O)O
Category scheme (GLP-1 EC50 (nM); cAMP, agonistic activity): A (below 0.004 nM), B (0.004 nM to below 0.009 nM), C (0.009 nM or more)

1) Y[Aib]QGTFTSDYSK[αMeL]LDKKAQ[Aib]AFIEFLLEGGPSSGAPPPS-NH2 (linker 12-16 via Ida, Lys, Lys, γGlu, C20 diacid; also: further groups not given here) [Example 28] : C
2) Y[Aib]QGTFTSDYSI[αMeL]LDKKAQ[Aib]KFIEYLLEGGPSSGAPPPS-NH2 (bridge 17-21; also: further groups not given here) [Example 7] : B
3) Y[Aib]QGTFTSDYSI[αMeL]LDKKAQ[Aib]KFIEFLLEGGPSSGAPPPS-NH2 (bridge 17-21; also: stapled body between K17 and K21 is given only as a drawing, not in text) [Example 9] : B
4) Y[Aib]QGTFTSDYSI[αMeL]KDKKAQ[Aib]AFIEYLLEGGPSSGAPPPS-NH2 (linker 14-17 via (2-2-oxoethyl)‑glycine, AEEA, γGlu, C20 diacid) [Example 21] : C
5) H[Aib]HGTFTSDYSIYLEKKYA[Aib]KFVQWLLEGGPSSGAPPPS-NH2 (bridge 17-21; not fully specified (bridges); also: stapled body (lipidated) structure only in drawing chem0198) [Example 5] : C
6) H[Aib]HGTFTSDYSIYLEKKYA[Aib]EFVKWLLKGGPSSGAPPPS-NH2 (bridge 24-28; not fully specified (bridges); also: stapled body (lipidated) structure only in drawing chem0197) [Example 4] : C
7) Y[Aib]QGTFTSDYSI[αMeL]KDKKAQ[Aib]AFIEYLLEGGPSSGAPPPS-NH2 (linker 14-17 via (2-2-oxoethyl)‑glycine, AEEA, Lys, γGlu, C20 diacid) [Example 52] : A
8) Y[Aib]QGTFTSDYSI[αMeL]LDKKAQ[Aib][dK]FIEYLLEGGPSSGAPPPS-NH2 (linker 17-21 via stapled body chem0214; reading uncertain; also: further groups not given here) [Example 16] : A
9) Y[Aib]QGTFTSDYSI[αMeL]LDKKAQ[Aib]KFIEYLLEGGPSSGAPPPS-NH2 (linker 17-21 via Glu, AEEA, AEEA, γGlu, C20 diacid) [Example 12] : A
10) Y[Aib]QGTFTSDYSI[αMeL]LDKKAQ[Aib]AFIKYLLEGGPSSGAPPPS-NH2 (linker 17-24 via stapled body chem0209; reading uncertain; also: further groups not given here) [Example 11] : B

Q: Each binder maps to one class by GLP-1 EC50 (nM); cAMP, agonistic activity. Which class for Y[Aib]QGTFTSDYSI[αMeL]KDKKAQ[Aib]AFIEYLLKGGPSSGAPPPS-NH2 (bridge 14-17; not fully specified (bridges); also: stapled body (lipidated) structure only in drawing chem0263) [Example 54] ?
Result: A

Q: Each binder maps to one class by GLP-1 EC50 (nM); cAMP, agonistic activity. Which class for Y[Aib]QGTFTSDYSI[αMeL]LDKKAQ[Aib]KFIEYLLEGGPSSGAPPPS-NH2 (bridge 17-21; also: stapled body between K17 and K21 is given only as a drawing, not in text) [Example 6] ?
Result: B
